All figures here come from ChEMBL document CHEMBL4043080.

pIC50: −log10 of the molar value.
Record set of pIC50 for target or system UniProtKB P43249.

// lookup pIC50 for O=C(NCCc1c[nH]cn1)c1cc([C@@H]2CCNC[C@H]2COc2ccc3c(c2)OCO3)ccc1F < 4.00

// lookup pIC50 for CNC(=O)c1cc([C@@H]2CCNC[C@H]2COc2ccc3c(c2)OCO3)ccc1F < 4.00

// lookup pIC50 for COc1ccccc1CNC(=O)c1cc([C@@H]2CCNC[C@H]2COc2ccc3c(c2)OCO3)ccc1F < 4.00

// lookup pIC50 for O=C(Cc1cc([C@@H]2CCNC[C@H]2COc2ccc3c(c2)OCO3)ccc1F)NCc1ccccn1 < 4.00

* * *

Record set of pIC50 for target or system G protein-coupled receptor kinase 5 (Bos taurus).
pIC50: −log10 of the molar value.

// lookup pIC50 for O=C(NCCc1cccnc1)c1cc([C@@H]2CCNC[C@H]2COc2ccc3c(c2)OCO3)ccc1F < 4.00

// lookup pIC50 for COc1ccccc1CNC(=O)Cc1cc([C@@H]2CCNC[C@H]2COc2ccc3c(c2)OCO3)ccc1F < 4.00

// lookup pIC50 for O=C(Cc1cc([C@@H]2CCNC[C@H]2COc2ccc3c(c2)OCO3)ccc1F)NCCc1ccccn1 < 4.00
